Give measured IC50 for each item. Keep answers brief.
Target: PI3K (p110α/p85α) (Homo sapiens (Human), UniProt P42336)
Sequence (P42336 whole entry): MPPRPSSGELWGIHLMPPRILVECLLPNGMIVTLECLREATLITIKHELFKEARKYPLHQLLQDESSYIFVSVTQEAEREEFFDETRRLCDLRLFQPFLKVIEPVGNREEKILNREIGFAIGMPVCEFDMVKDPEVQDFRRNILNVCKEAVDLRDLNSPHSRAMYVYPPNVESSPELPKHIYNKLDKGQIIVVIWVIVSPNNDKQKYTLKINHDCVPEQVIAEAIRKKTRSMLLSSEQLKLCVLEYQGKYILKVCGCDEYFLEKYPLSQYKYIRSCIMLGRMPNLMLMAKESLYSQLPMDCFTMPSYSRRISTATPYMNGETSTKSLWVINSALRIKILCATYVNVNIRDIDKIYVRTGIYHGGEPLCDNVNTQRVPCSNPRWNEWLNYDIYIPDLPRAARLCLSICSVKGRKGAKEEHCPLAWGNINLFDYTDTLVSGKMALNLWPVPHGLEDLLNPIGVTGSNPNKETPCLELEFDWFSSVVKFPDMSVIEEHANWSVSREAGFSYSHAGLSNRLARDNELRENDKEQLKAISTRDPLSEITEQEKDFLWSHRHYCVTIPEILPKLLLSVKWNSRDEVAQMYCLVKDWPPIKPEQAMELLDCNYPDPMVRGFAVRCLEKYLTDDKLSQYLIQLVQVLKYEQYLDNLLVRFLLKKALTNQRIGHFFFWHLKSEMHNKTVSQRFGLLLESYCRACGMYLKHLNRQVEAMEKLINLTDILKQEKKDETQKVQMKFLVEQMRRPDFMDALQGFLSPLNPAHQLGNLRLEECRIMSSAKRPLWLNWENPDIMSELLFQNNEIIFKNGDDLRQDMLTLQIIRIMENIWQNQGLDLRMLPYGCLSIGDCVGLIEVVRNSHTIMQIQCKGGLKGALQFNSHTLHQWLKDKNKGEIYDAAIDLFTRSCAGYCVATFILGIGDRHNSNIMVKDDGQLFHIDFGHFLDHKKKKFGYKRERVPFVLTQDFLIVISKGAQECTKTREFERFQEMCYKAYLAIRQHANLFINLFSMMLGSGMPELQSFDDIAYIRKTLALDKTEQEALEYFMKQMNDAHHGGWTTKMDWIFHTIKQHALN
Sequence (P27986 whole entry partner): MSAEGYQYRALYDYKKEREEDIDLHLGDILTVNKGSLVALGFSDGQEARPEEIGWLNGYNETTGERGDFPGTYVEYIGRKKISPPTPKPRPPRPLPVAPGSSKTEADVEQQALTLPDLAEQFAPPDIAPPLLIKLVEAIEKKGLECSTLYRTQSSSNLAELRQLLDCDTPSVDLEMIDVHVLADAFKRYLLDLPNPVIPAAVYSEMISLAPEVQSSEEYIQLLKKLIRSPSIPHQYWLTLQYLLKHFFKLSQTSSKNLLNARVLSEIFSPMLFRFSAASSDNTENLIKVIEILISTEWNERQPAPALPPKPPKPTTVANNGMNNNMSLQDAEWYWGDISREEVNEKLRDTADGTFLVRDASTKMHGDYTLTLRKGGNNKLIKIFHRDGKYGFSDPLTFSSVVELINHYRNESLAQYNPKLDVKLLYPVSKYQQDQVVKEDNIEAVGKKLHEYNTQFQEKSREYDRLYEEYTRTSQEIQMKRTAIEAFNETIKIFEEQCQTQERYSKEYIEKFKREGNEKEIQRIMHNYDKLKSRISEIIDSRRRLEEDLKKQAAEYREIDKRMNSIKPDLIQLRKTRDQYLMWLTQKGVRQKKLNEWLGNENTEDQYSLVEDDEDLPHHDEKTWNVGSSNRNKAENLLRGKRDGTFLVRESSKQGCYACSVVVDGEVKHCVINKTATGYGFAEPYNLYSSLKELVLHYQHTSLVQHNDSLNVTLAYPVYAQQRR
Assay: PI3K alpha activity assay (ADP Hunter Plus)
Assay type: biochemical
Settings: 50 μM ATP, 30 μM PIP2; read-out: PI3Kα IC50
Give bare numbers, in µM.

Please review the entries below; each comes with its answer.
- smiles-record: "CN(C)c1nc2ccccc2n1-c1nc2c(c(C(C)(C)S(C)(=O)=O)n1)OC[C@@H]1COCCN21"
  assay-system: "PI3K (p110α/p85α) (Homo sapiens (Human), UniProt P42336)"
  result-type: "IC50"
  reported: 28.6
- smiles-record: "CNc1nc2ccccc2n1-c1nc2c(c(C3(S(C)(=O)=O)CC3)n1)OC[C@@H]1COCCN21"
  assay-system: "PI3K (p110α/p85α) (Homo sapiens (Human), UniProt P42336)"
  result-type: "IC50"
  reported: 7.17
- smiles-record: "CS(=O)(=O)C1(c2nc(-c3ccc(F)c4[nH]ccc34)nc3c2OC[C@@H]2COCCN32)CCC1"
  assay-system: "PI3K (p110α/p85α) (Homo sapiens (Human), UniProt P42336)"
  result-type: "IC50"
  reported: 50
- smiles-record: "COc1cc(-c2nc3c(c(C4(S(C)(=O)=O)CCC4)n2)OC[C@@H]2COCCN32)c2cc[nH]c2c1"
  assay-system: "PI3K (p110α/p85α) (Homo sapiens (Human), UniProt P42336)"
  result-type: "IC50"
  reported: 4.49
- smiles-record: "CNc1nc2ccc(F)cc2n1-c1nc2c(c(C(C)(C)S(C)(=O)=O)n1)OC[C@@H]1COCCN21"
  assay-system: "PI3K (p110α/p85α) (Homo sapiens (Human), UniProt P42336)"
  result-type: "IC50"
  reported: 12.2

Dear colleague, could you please provide IC50 for the molecules listed below?
1. CNc1nc2cc(Cl)ccc2n1-c1nc2c(c(C3(S(C)(=O)=O)CC3)n1)OC[C@@H]1COCCN21
2. CNc1nc2ccc(C#N)cc2n1-c1nc2c(c(C(C)(C)S(C)(=O)=O)n1)OC[C@@H]1COCCN21
3. CC(C)(c1nc(-c2cc(C(F)(F)F)cc3[nH]ccc23)nc2c1OC[C@@H]1COCCN21)S(C)(=O)=O
4. CC(C)(c1nc(-n2c(N)nc3ccccc32)nc2c1OC[C@@H]1COCCN21)S(C)(=O)=O
5. CNc1nc2ccc(F)cc2n1-c1nc2c(c(C3(S(C)(=O)=O)CCC3)n1)OC[C@@H]1COCCN21
6. CNc1nc2ccccc2n1-c1nc2c(c(C3(S(C)(=O)=O)CCC3)n1)OC[C@@H]1COCCN21
7. CC(C)(c1nc(-c2cc(F)cc3[nH]ccc23)nc2c1OC[C@@H]1COCCN21)S(C)(=O)=O

output:
[50, 50, 12.6, 0.87, 50, 2.75, 1.08]

* * *

Give measured inhibition at 10 µM for each item. Keep answers brief.
Biological target: ATR (Homo sapiens (Human), UniProt Q13535)
Sequence (Q13535 whole entry): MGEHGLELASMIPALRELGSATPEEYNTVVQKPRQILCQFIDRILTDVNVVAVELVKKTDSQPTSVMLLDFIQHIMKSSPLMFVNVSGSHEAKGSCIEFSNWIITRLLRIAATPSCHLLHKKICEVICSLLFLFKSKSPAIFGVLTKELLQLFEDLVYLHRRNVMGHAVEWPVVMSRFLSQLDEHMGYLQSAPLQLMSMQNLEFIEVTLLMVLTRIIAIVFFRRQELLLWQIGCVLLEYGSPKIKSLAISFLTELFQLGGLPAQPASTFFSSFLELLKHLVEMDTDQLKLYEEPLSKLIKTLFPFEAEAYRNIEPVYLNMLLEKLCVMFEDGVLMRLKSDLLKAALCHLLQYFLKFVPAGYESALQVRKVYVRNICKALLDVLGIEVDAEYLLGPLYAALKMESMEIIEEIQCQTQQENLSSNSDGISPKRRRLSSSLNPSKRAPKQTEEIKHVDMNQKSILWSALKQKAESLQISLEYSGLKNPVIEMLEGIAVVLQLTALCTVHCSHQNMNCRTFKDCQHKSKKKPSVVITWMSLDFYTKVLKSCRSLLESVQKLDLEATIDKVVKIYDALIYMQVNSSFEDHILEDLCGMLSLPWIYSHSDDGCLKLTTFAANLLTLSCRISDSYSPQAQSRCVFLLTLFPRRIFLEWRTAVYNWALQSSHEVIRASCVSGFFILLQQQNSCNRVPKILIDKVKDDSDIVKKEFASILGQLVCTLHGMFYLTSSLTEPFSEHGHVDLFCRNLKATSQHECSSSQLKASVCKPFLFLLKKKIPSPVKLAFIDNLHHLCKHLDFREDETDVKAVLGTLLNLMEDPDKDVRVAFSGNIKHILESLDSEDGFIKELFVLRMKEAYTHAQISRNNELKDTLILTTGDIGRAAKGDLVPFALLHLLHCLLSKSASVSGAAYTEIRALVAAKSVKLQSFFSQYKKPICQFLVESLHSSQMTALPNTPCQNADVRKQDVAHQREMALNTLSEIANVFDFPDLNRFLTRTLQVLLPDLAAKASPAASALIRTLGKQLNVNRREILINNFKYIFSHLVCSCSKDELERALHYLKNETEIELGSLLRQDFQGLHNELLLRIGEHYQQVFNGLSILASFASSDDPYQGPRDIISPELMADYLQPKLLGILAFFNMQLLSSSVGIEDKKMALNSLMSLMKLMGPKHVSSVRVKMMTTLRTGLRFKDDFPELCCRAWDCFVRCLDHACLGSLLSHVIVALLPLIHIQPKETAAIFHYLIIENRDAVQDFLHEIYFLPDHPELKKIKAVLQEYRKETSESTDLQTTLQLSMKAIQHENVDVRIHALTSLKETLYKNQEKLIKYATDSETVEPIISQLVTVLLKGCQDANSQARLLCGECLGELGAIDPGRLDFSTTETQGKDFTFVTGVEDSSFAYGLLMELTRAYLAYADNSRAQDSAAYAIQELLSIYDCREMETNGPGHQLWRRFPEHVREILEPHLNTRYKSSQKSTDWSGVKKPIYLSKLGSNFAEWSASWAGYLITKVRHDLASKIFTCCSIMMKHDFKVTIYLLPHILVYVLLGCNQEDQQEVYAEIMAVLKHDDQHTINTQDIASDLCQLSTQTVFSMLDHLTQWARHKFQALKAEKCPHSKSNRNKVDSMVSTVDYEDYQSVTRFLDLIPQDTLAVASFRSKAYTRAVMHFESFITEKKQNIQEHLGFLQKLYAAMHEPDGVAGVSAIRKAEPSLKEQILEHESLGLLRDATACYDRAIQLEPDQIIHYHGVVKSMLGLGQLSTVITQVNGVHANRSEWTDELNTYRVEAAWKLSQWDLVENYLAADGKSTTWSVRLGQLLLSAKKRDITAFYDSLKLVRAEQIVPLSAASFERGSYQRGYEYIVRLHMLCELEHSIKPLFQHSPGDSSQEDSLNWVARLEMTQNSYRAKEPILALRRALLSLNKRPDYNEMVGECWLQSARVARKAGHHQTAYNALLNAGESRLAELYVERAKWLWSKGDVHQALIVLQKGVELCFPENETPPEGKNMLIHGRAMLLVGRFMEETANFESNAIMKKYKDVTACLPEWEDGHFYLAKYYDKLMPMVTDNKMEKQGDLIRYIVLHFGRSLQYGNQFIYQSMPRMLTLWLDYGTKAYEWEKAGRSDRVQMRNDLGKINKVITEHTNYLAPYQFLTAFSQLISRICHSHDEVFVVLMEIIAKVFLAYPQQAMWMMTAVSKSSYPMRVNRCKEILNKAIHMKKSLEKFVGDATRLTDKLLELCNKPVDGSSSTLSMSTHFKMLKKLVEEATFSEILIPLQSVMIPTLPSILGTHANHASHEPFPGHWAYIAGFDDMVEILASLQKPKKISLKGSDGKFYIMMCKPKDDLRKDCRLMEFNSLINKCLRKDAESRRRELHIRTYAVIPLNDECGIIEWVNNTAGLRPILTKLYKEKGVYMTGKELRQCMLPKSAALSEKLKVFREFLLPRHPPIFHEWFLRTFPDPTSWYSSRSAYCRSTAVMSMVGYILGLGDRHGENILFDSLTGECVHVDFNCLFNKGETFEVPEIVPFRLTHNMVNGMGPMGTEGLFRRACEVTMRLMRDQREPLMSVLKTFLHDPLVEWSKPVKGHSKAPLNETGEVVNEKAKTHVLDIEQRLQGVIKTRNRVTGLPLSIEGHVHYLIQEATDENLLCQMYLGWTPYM
Experiment: Cellular ATR inhibition, pChk1 Ser345 after UV mimetic 4NQO
Type: cell-based
Conditions: HT-29, read-out: UV mimetic inhibition of CHK1P at 10 μM (%); 10 μM compound, 3 μM 4NQO, HT29 cells
Answers are plain numbers, in %.

Please review the entries below; each comes with its answer.
- compound: "CS(=O)(=O)C1(c2nc(-c3cccc4[nH]ccc34)nc3c2OC[C@@H]2COCCN32)CCOCC1"
  reported: 98
- compound: "CS(=O)(=O)C1(c2nc(-c3cccc4[nH]ccc34)nc3c2OC[C@H]2COCCN32)CCOCC1"
  reported: 95
- compound: "CC(C)(c1nc(-c2cccc3[nH]ccc23)nc2c1OCC1COCCN21)S(C)(=O)=O (stereo not shown)"
  reported: 99

Dear colleague, could you please provide inhibition at 10 µM for the compounds listed below?
1. CS(=O)(=O)C1(c2nc(-c3cccc4[nH]ccc34)nc3c2OCC2COCCN32)CCOCC1 (stereo not shown)
2. C[C@@H]1CN(CC(=O)Nc2ccc3c(c2)Cc2cccc(-c4cc(=O)cc(N5CCOCC5)o4)c2S3)C[C@H](C)O1 [ATM inhibitor KU-60019, reference compound]
3. CNc1nc2ccccc2n1-c1nc2c(c(C(C)(C)S(C)(=O)=O)n1)OCC1COCCN21 (stereo not shown)

output:
1: 98; 2: 38; 3: 98

input: # return recorded inhibition at 10 µM for input O=S(=O)(Cc1nc(-c2cccc3[nH]ccc23)nc2c1OCC1COCCN21)C(F)(F)F (stereo not shown)
output: 98

Values compiled from patent US9453031B2.
